Data provenance is PubChem BioAssay.

- System: Neuregulin-1 EGF-like domain
- TEST PROTOCOL: binders of neuregulin-1 EGF-like domain, primary screen, biochemical, small-molecule microarray, 635 nm fluorescence (AID 1081);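 further: binding of the protein to compounds printed on small-molecule microarray slides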
- EXPERIMENTAL SETUP: small-molecule microarray binding, higher = more signal
OBSERVABLE: composite z-score

C[C@@H](OCc1ccccc1)C1NC(=O)[C@@]23C(=O)N[C@@H](Cc4ccccc4)C2[C@H](C)[C@@]2(C)O[C@H]2C3/C=C/C/C=C\CNC(=O)[C@@H]2CCCN2C1=O (stereo not given in full) ... 0.633
CN(C)CCCC[C@@H]1NC(=O)[C@@H]2C[C@H](C(=O)NCCCCCNC(=O)CS)[C@H](c3cccc(OCCO)c3)N2C1=O ... 1.2
O=C(NC1CC1)[C@@H]1c2ccccc2C(=O)N(Cc2ccccc2C(F)(F)F)[C@H]1c1ccc(CO)cc1 ... 1.26
C#CCOc1ccc(C[C@H]2C(=O)O[C@H](Cc3ccccc3)[C@H](/C=C/C3CC3)N2CC#C)cc1 ... 0.141
CCOC(=O)C[C@H]1[C@H](OC(=O)c2ccc(-c3ccccc3)cc2)[C@@H](NC(=O)c2ccccc2)c2cc(OCCCO)ccc2N1C(=O)c1ccccc1 ... 0.773
[N-]=[N+]=NCc1ccccc1C[C@@]1(C(=O)NCc2ccccc2)N=C(c2ccc(OCCCO)cc2)O[C@@H]1c1ccccc1 ... 0.856
Cc1ccc(S[C@]2(C(=O)NCCN3CCOCC3)CC(=O)N(Cc3cc(C(F)(F)F)cc(C(F)(F)F)c3)[C@@H]2c2ccc(CO)cc2)cc1 ... -0.382
CC(C)[C@@H](C(=O)O)n1cc(-c2ccccn2)nn1 ... 0.961
CC(C)(C)OC(=O)CC[C@@]1(C(=O)NCc2ccccc2)N=C(c2ccc(OCCCO)cc2)O[C@@H]1c1ccccc1CN=[N+]=[N-] ... 1.15
CCOC(=O)C[C@H]1[C@H](OC(=O)c2ccc(C(=O)c3ccccc3)cc2)[C@@H](NC(=O)Cc2ccc(OC)cc2)c2cc(OCCCO)ccc2N1C(=O)Cc1ccc(OC)cc1 ... 0.668

# return recorded composite z-score for entry `CCOC(=O)C[C@H]1[C@H](OC(=O)c2cc3ccccc3oc2=O)[C@@H](NC(=O)c2ccccc2)c2cc(OCCCO)ccc2N1C(=O)Cc1ccc(OC)cc1`
-0.1

# return recorded composite z-score for entry CC(C)CCC[C@@H](C)[C@H]1CC[C@@]2(C)C3=C(CC[C@]12C)[C@@]1(C)CC[C@H](OC(=O)CCl)C(C)(C)C1CC3 (stereo not given in full)
0.59

# return recorded composite z-score for entry `CC(C)C(=C=CC[C@@H](O)c1ccc(CO)o1)CCO`
1.19

# return recorded composite z-score for entry `C=C(CCCC)/C(=C/C[C@H](OC(=O)c1ccncc1)c1ccc(CO)o1)c1cnc2ccccc2c1`
1.04

# return recorded composite z-score for entry `C=CCC1(CC=C)C[C@H]2CO[C@H](c3ccc(OC)cc3)N2C1=O`
0.523

###

Here, each record is paired with measured z-score data.
- TEST PROTOCOL: splicing luciferase reporter signal modulators, primary screen, spliceosome inhibition project, cell-based, HEK293, splice +/- reporter (AID 1101);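 further: HEK293 cells carrying a splicing-competent luciferase reporter gene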
- EXPERIMENTAL SETUP: luminescence, 24 h, higher = more signal, called active from +8 up or from −8 down
The reply should be a number, written without any unit.

Worked set:
O=C1O[C@H](c2ccccc2)[C@H](c2ccccc2)N2[C@H]1[C@@H](C(=O)Nc1nc3ccccc3s1)[C@]1(C(=O)Nc3ccc(C#CCCO)cc31)[C@H]2c1ccccc1OCCO ... -0.0121
CCOC(=O)C[C@H]1[C@H](OC(=O)c2ccc(C(=O)c3ccccc3)cc2)[C@@H](NC(=O)Cc2ccc(OC)cc2)c2cc(OCCCO)ccc2N1C(=O)Cc1ccc(OC)cc1 ... -1.52

Now consider a different molecule.
# return recorded z-score for entry `C=C(COC)/C(=C/C[C@H](OC(C)=O)c1ccc(CO)o1)c1cnc2ccccc2c1`
-1.03

###

- TEST PROTOCOL: small-molecule binders of probe aLefty1, primary screen, biochemical, small-molecule microarray, 635/667 nm fluorescence (AID 1153);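 further: score merges spot fluorescence with signal-to-noise ratio from the scanned slide images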
- EXPERIMENTAL SETUP: higher = more signal
OBSERVABLE: composite z-score
The reply should be a number, written without any unit.

Worked set:
CO[C@H]1O[C@H](CO)[C@@H](OC(=O)CCc2ccccc2)[C@@H]2OC(=O)[C@H](Cc3ccccc3)C/C=C/C[C@@H](Cc3ccccc3)C(=O)O[C@@H]12 ... -0.243
C=CCN1C(=O)[C@@]2(O[C@@H](CCO)[C@H]([Si](C)(C)c3ccc(OC)cc3)[C@H]2C)c2cc(N3C(=O)c4cccc5cccc3c45)ccc21 ... 0.0313
C=C[C@H](OC)[C@@H](OC(=O)Nc1ccc(OC)cc1)c1ccc(OC)c(O)c1 ... -0.0984

# return recorded composite z-score for entry `CC(=O)NCCCC[C@@H]1NC(=O)[C@@H]2C[C@H](C(=O)O)[C@H](c3cccc(OCCO)c3)N2C1=O`
-0.138

# return recorded composite z-score for entry C[C@@H](OCc1ccccc1)C1NC(=O)[C@@]23C(=O)N[C@@H](Cc4ccccc4)C2[C@H](C)[C@@]2(C)O[C@H]2C3/C=C/C/C=C\CNC(=O)[C@@H]2CCCN2C1=O (stereo partly specified)
-0.239

# return recorded composite z-score for entry `CCOC(=O)C[C@H]1[C@H](OC(=O)c2ccc(-c3ccccc3)cc2)[C@@H](NC(=O)c2ccccc2)c2cc(OCCCO)ccc2N1C(=O)c1ccccc1`
0.167

# return recorded composite z-score for entry `CCCCC(=C=CC[C@H](O)c1cccc(OCCO)c1)CCO`
0.37

# return recorded composite z-score for entry `CC(C)CNC(=O)[C@@H]1c2ccccc2C(=O)N(Cc2ccc(OC(F)(F)F)cc2)[C@H]1c1ccc(CO)cc1`
0.315

###

- TEST PROTOCOL: non-specific cell cytotoxicity, dose response, cytotoxicity control for PAX8 inhibitor project, plate reader, dry powder samples (AID 743021)
- EXPERIMENTAL SETUP: cell line, non-specific cytotoxicity counter-screen; series mostly up to 35 µM
Entries with a potency or affinity are not part of this list. Records with an inconclusive call do not appear. Activity calls are given as the source filed them. The rule behind the calls is not given here.
OBSERVABLE: activity change, negative = cytotoxicity

C[C@@H]1CN([C@H](C)CO)S(=O)(=O)c2ccc(C#CC3CCCC3)cc2O[C@@H]1CN(C)C(=O)Cc1ccncc1 ... inactive
COc1ccc(S(=O)(=O)N(C)C[C@H]2Oc3ccc(NC(=O)Nc4ccc(C(F)(F)F)cc4)cc3C(=O)N([C@H](C)CO)C[C@@H]2C)cc1 ... inactive
C=C1C(=O)[C@]23C[C@H]1CC[C@H]2[C@]1(C)[C@@H](OC(C)=O)CC[C@@](C)(C(=O)OC)[C@H]1C[C@@H]3OC(C)=O ... -15.7% [at 8 µM] (inactive)
C[C@@H]1CCCCO[C@@H](CN(C)Cc2ccc(C(F)(F)F)cc2)[C@H](C)CN([C@@H](C)CO)C(=O)c2cc(NS(=O)(=O)c3ccccc3)ccc2O1 ... inactive

###

- System: wheat germ agglutinin (Triticum aestivum), Alexa647-labelled
- TEST PROTOCOL: wheat germ agglutinin binders on compound microarrays, profiling panel, artefact control for SMM control-protein annotation, biochemical, small-molecule microarray, 635/667 nm fluorescence (AID 1140);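 further: score merges 667 nm feature emission with signal to noise over triplicate slides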
- EXPERIMENTAL SETUP: WGA-A647 binding, 635 nm fluorescence, higher = more signal
OBSERVABLE: composite z-score

Worked set:
CC(=O)NCCCC[C@@H]1NC(=O)[C@@H]2C[C@H](C(=O)O)[C@H](c3cccc(OCCO)c3)N2C1=O ... 0.795
CCCCCCC#C[Si](O[C@H](c1ccccc1)c1cn(Cc2ccccc2)nn1)(C(C)C)C(C)C ... -0.349
Cc1ccc(N2C(=O)c3ccccc3[C@](C)(C(=O)NC3CC3)[C@@H]2c2ccc(CO)cc2)nc1 ... 0.618

Now consider a different compound.
# return recorded composite z-score for entry `C=CCN1C(=O)[C@]2(O[C@H](CCn3cc([C@H](O)c4ccccc4)nn3)[C@@H]([Si](C)(C)c3ccc(OC)cc3)[C@@H]2C)c2cc(N3CCOC3=O)ccc21`
0.514

###

Here, each record is paired with measured composite z-score data.
- Tested on: Sonic hedgehog protein (Shh)
- TEST PROTOCOL: small-molecule binders of Shh protein, primary screen, biochemical, small-molecule microarray, 635/667 nm fluorescence (AID 1151);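 further: Shh protein binding to compounds spotted on small-molecule microarray slides; score combines spot fluorescence intensity with signal-to-noise across triplicate slides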
- EXPERIMENTAL SETUP: small-molecule microarray binding, 635 nm fluorescence; higher = more signal

Worked set:
O=c1n(-c2ccccc2)c(=O)n2n1CC(COc1ccccc1)=C1[C@@H](CCc3ccccc3)OB(O)C[C@@H]12 ... 1.12
CCOC(=O)C[C@H]1[C@H](OC(=O)c2cc3ccccc3oc2=O)[C@@H](NC(=O)c2ccccc2)c2cc(OCCCO)ccc2N1C(=O)Cc1ccc(OC)cc1 ... 0.251
CCCNC(=O)[C@@]1(Sc2ccc(C)cc2)CC(=O)N(Cc2cc(C(F)(F)F)cc(C(F)(F)F)c2)[C@@H]1c1ccc(CO)cc1I ... 0.158

# return recorded composite z-score for entry CC(=O)OC(C/C=C\B1OC(C)(C)C(C)(C)O1)c1ccccc1 (stereo not given)
-0.236
